Data provenance is patent US20140057807A1.

tested_on: T1, yeast small ubiquitin-like modifier protein (yeast, UniProt Q12306 3-98 = SUMO)
T1 construct: GST fusion in most phage ELISAs, His-tagged or tag-cleaved elsewhere; also called ySUMO; yeast SUMO
procedure_details: SPR (monobody on the chip via His-tag, target flowed); estimated Kd
Experimental: Cradle molecules purified as described above were immobilized via His-tag to an NTA surface using a Biacore™ 2000 instrument so that the theoretical maximum response (Rₘₐₓ) from target binding was 100-200 RU. Target protein at varying concentrations was then flowed over the surface at a flow rate of 30 μL/min and the binding signal recorded. Fitting of kinetic traces was carried out using the BIAevaluation software. […]
# Kd annotations
Numeric answer only, unit nM assumed.

These recorded examples may help you get a feel for the data.
| binder | Kd / nM |
| --- | --- |
| Clone# 4 (ySUMO Monobodies) (designed binder, recovered against ySUMO from the SUMO-targeted library) VSSVPTKLEVVAATPTSLLISWDASSSSVSYYRITYGETGGNSPVQEFTVPGSSSTATISGLSPGVDYTITVYAYYSDDFLDFAFSPSSINYRT | 3300 |
| ySMB-1 (designed binder, it may hold only the diversified positions and not the whole FnIII domain; BC and DE loops are polyserine; also called monobody ySMB-1; FnIII domain variant ySMB-1) VSSVPTKLEVVAATPTSLLISWDASSSSVSYYRITYGETGGNSPVQEFTVPGSSSTATISGLSPGVDYTITVYAYYSYYDLYYSYSPSSINYRT | 72 |
| Clone# 2 (ySUMO Monobodies) (designed binder, recovered against ySUMO from the SUMO-targeted library) VSSVPTKLEVVAATPTSLLISWDASSSSVSYYRITYGETGGNSPVQEFTVPGSSSTATISGLSPGVDYTITVYAYYSEEFFDYAVSPSSINYRT | 194 |

Request: Give the measured Kd of Clone# 3 (ySUMO Monobodies) (designed binder, recovered against ySUMO from the SUMO-targeted library) VSSVPTKLEVVAATPTSLLISWDASSSSVSYYRITYGETGGNSPVQEFTVPGSSSTATISGLSPGVDYTITVFAYYSEEFFDYAYSPSSINYRT .
Response: 435

Request: What measured Kd goes with Clone# 1 (ySUMO Monobodies) (designed binder, recovered against ySUMO from the SUMO-targeted library) VSSVPTKLEVVAATPTSLLISWDASSSSVSYYRITYGETGGNSPVQEFTVPGSSSTATISGLSPGVDYTITVYAYYSYYDIYYAVSPSSINYRT ?
Response: 39

Request: Find the recorded Kd belonging to Clone# 5 (ySUMO Monobodies) (designed binder, recovered against ySUMO from the SUMO-targeted library) VSSVPTKLEVVAATPTSLLISWDASSSSVSYYRITYGETGGNSPVQEFTVPGSSSTATISGLSPGVDYTITVYAYYSYYNIFFADSPSSINYRT and report it.
Response: 112
